- target.or.test.system: T1, human RXFP1 (human, UniProt Q9HBX9 1-757)
- T1 sequence (looked up): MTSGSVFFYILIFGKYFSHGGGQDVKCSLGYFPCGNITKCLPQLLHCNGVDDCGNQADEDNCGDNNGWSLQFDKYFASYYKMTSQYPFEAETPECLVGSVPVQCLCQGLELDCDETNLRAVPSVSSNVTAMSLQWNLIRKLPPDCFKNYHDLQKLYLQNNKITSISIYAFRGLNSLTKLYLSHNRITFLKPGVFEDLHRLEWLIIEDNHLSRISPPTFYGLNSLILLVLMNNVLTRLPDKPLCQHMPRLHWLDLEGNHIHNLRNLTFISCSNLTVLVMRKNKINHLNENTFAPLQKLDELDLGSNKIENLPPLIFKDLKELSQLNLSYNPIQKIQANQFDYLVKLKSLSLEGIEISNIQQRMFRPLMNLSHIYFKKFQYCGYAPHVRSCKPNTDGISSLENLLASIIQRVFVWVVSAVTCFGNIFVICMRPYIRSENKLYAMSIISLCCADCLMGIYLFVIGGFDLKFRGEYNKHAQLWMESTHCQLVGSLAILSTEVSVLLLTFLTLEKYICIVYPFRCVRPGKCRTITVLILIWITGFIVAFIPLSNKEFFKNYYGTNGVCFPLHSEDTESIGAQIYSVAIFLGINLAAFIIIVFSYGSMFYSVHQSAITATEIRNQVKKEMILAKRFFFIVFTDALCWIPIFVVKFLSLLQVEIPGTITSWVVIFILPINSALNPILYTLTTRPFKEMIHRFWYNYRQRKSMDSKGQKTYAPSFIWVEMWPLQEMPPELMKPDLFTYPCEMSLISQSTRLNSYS
- method.summary: cell-based or functional assay
Numbered stars: 1 amine (or outer) side, 2 acyl side, 3 side chain; on linkers, the order of the positions; unused ones are H or OH. Square brackets hold non-standard residues; d marks the D form. Side chains are listed from the residue outwards. * marks the point of attachment. TTDS = 4-[3-[2-[2-(3-aminopropoxy)ethoxy]ethoxy]propylamino]-4-oxo-butanoyl; γGlu = O=C(O)[C@H](CCC(=O)[*:2])N[*:1]; Stearoyl = CCCCCCCCCCCCCCCCCC(=O)*; Palmitoyl = CCCCCCCCCCCCCCCC(=O)*; αMeK = C[C@](N)(CCCCN)C(=O)O; Aib = CC(C)(N)C(=O)O
quantity.measured: EC50 (nM), OVCAR 5 cells (cAMP)

Example entries begin here.
Ac-LEGREKVRAK(Ac)I[Aib][Aib]EGK([TTDS-TTDS-γGlu-γGlu-γGlu-γGlu-Stearoyl])STWS[Aib]RKK(Ac)-NH2 [Relaxin peptide analogue of SEQ ID NO: 54]; 0.16
Ac-LEGREKVRAK(Ac)I[Aib][Aib]EGK([TTDS-TTDS-TTDS-TTDS-γGlu-γGlu-γGlu-Palmitoyl])STFS[αMeK]RAK(Ac)-NH2 [Relaxin peptide analogue of SEQ ID NO: 78]; 0.18

P = Ac-LEGRERVRAK(Ac)I[Aib][Aib]EGK([TTDS-TTDS-TTDS-γGlu-γGlu-γGlu-Palmitoyl])STFS[Aib]RRK(Ac)-NH2 [Relaxin peptide analogue of SEQ ID NO: 76]
Q = Ac-LEGREKVRAK(Ac)I[Aib][Aib]EGK([TTDS-TTDS-TTDS-γGlu-γGlu-γGlu-Palmitoyl])STWS[Aib]RAK-NH2 [Relaxin peptide analogue of SEQ ID NO: 71]
(Q) Given P and Q , report the one with the higher recorded EC50 (nM), OVCAR 5 cells (cAMP). Please respond with the label that marks your chosen entry.
(A) Q
